system-name: Cannabinoid receptor 1 (Homo sapiens)
method: Positive allosteric modulation of human CB1 receptor expressed in CHO cell membranes assessed as increase in binding [3H]CP55940 to the receptor up to 10 uM after 60 mins by liquid scintillation spectrometric method relative to control
conditions: Cell membrane, filed as positive allosteric modulator, dose microM <=10, time 60.0 min
The entries below are paired with their reported Activity.
property-label: Activity (%)

1) O=C(Nc1ccc(Cl)cc1)Nc1cccc(Nc2ccccc2)c1 | 90
2) O=C(Nc1ccc(Cl)cc1)Nc1cccc(Nc2cccc(N3CCCCC3)n2)n1 | 50
3) O=C(Nc1ccc(Cl)cc1)Nc1cccc(Nc2ccccn2)c1 | 170
4) O=C(Nc1ccc(Cl)cc1)Nc1cccc(Nc2ccc(F)cc2)c1 | 90
5) O=C(Nc1ccc(F)cc1)Nc1cccc(-c2cccc(N3CCCC3)c2)c1 | 70
6) O=C(Nc1ccc(Cl)cc1)Nc1cccc(Nc2cccc(N3CCCC3)n2)n1 | 60

* * *

system-name: Cannabinoid receptor 1 (Homo sapiens) (UniProt P21554)
Sequence (P21554 whole entry): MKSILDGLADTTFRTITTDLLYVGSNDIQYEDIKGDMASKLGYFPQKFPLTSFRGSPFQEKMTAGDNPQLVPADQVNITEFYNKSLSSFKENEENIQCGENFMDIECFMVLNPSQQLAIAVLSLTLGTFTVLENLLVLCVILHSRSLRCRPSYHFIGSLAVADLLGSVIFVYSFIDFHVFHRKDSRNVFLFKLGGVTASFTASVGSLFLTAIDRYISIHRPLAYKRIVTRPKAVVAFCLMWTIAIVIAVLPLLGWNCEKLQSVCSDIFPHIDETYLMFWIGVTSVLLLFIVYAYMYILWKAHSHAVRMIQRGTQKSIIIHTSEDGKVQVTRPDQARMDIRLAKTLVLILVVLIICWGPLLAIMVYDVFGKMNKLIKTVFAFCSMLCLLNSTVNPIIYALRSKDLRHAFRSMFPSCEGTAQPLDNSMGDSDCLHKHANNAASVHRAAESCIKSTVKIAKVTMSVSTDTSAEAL
method: Negative allosteric modulation of human CB1 receptor expressed in CHO cell membranes assessed as decrease in CP55940-induced agonist activity at 1 uM after 90 mins by [35S]-GTPgammaS binding based liquid scintillation spectrometric method relative to control
Type: functional
Parameters: scale not given: the % may be the effect or the level left
conditions: Cell membrane
Calls of active or inactive are those of the source. The calls are words filed in the database; no cut-off is given here.
property-label: Activity

1) O=C(Nc1ccc(Cl)cc1)Nc1cccc(-c2cccc(N3CCCCC3)c2)c1 | 30%
2) O=C(Nc1ccc(Cl)cc1)Nc1cccc(Nc2ccc(F)cc2)c1 | 30%
3) O=C(Nc1ccc(Cl)cc1)Nc1cccc(Nc2cccc(N3CCCC3)n2)n1 | inactive
4) O=C(Nc1ccc(Cl)cc1)Nc1cccc(Nc2cccc(N3CCCCC3)n2)n1 | inactive

Numbers sourced from ChEMBL document CHEMBL4706514.
